target: NLRP3 (Homo sapiens, UniProt Q96P20); construct: Seed THP-1 cells (25,000 cells/well) containing 1.0 μg/ml LPS in 40 μl of RPMI medium; test: THP-1 Cells Pyroptosis Assay; settings: THP-1 cells with 1.0 μg/ml LPS; compound 3 hours; nigericin 5 μM 1 hr; resazurin readout
Sequence (Q96P20 whole entry): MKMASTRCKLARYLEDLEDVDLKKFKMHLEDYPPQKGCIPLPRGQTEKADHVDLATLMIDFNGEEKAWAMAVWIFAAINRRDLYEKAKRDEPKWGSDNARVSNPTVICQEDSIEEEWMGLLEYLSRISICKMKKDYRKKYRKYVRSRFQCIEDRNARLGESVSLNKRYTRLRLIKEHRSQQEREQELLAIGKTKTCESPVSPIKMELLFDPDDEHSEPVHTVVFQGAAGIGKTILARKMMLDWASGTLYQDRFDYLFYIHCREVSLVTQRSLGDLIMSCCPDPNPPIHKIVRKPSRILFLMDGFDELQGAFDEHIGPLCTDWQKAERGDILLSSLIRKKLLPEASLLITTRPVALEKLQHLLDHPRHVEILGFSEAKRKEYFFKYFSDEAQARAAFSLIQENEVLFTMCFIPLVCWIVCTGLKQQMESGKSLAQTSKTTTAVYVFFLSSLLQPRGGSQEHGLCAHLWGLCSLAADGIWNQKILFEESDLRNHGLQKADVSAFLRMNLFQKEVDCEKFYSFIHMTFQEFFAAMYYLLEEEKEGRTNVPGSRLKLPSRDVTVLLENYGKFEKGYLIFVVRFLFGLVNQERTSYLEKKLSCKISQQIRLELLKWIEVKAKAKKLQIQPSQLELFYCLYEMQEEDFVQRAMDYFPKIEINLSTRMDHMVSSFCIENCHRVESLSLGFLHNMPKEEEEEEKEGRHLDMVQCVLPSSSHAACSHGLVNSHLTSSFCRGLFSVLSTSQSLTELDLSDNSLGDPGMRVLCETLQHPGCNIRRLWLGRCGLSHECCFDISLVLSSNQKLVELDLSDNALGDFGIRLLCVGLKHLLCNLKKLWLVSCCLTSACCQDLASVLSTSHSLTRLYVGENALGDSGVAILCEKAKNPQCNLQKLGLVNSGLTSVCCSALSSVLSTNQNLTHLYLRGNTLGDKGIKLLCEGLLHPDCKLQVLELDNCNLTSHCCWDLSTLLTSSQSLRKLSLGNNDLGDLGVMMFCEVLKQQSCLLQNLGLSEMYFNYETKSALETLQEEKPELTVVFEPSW
REPORTED_METRIC: pIC50
Worth noting: pIC50 values are minus log10 of concentrations stated in mol/L.

Known results for molecules:
CCN1CCC[C@@H](Nc2nc3nc(-c4c(C)cc(C(F)(F)F)cc4O)cc(OC)c3o2)C1; 8.72
Cc1cc(Cl)cc(O)c1-c1ccc2oc(N[C@@H]3CCCN(CCC(F)F)C3)nc2n1; 8.04
Cc1cc(C(F)(F)F)cc(O)c1-c1ccc2oc(N3CCOCC3CN(C)C)nc2n1 (single isomer, unassigned) [Example 2A]; 6.89
Cc1cc(C#N)cc(O)c1-c1ccc2oc(NC3CCCN4C[C@@H](O)CC34)nc2n1 (some centres unmarked); 7.31
CCN1CCC[C@@H](Nc2nc3nc(-c4c(C)cc5c(c4O)CCO5)ccc3o2)C1; 8.92

Query string: For Cc1cc(C(F)(F)F)cc(O)c1-c1ccc2oc(N[C@@H]3CCCN(CCO)C3)nc2n1 , what is its reported pIC50?
Result string: 8.64

Query string: GET /values?readout=pIC50&item= Cc1cc(C(F)(F)F)cc(O)c1-c1ccc2oc(N[C@@H]3CCCN(C4CC(O)C4)C3)nc2n1 (some centres unmarked)
Result string: 7.40

Query string: Please give the measured pIC50 for this molecule: COc1cc(C)c(-c2ccc3oc(N[C@@H]4CCCN(C)C4)nc3n2)c(O)c1
Result string: 7.72

====

target: NLRP3 (Homo sapiens); construct: Seed THP-1 cells (25,000 cells/well) containing 1.0 μg/ml LPS in 40 μl of RPMI medium; assay: THP-1 Cells Pyroptosis Assay; settings: THP-1 cells with 1.0 μg/ml LPS; compound 3 hours; nigericin 5 μM 1 hr; resazurin readout
Kindly apply the following: met if IC50 is less than 20 nM, not met in every other case.

Use the examples below as a reference point.
Cc1cc(Cl)cc(O)c1-c1ccc2oc(N3CCOC4CCN(C)CC43)nc2n1 (centres unmarked); met
Cc1cc(C(F)(F)F)cc(O)c1-c1ccc2oc(N3CCOCC3)nc2n1; not met
CCN1CC(CNc2nc3nc(-c4c(C)cc(Cl)cc4O)ccc3o2)C1; not met
Cc1cc(C(F)(F)F)cc(O)c1-c1ccc2oc(C3CCC(=O)NC3)nc2n1 (racemic); met
CCN1CCC[C@@H](Nc2nc3nc(-c4c(C)cc(C(F)(F)F)cc4O)cc(NC)c3o2)C1; met
CCN1CCC[C@@H](Nc2nc3nc(-c4c(C)cc(C#N)cc4O)ccc3o2)C1; met

Query string: Criterion: IC50 strictly below 20 nM. Is it met by Cc1cc(C#N)cc(O)c1-c1ccc2oc(N[C@@H]3C[C@H](O)CN(C)C3)nc2n1 ?
Result string: met

Query string: # TODO verify IC50 < 20 nM strictly for this compound: Cc1cc(C(F)(F)F)cc(O)c1-c1ccc2[nH]c(C3CCCCN3C)nc2n1 (racemic)
Result string: not met

====

molecular target: NLRP3 (Homo sapiens, UniProt Q96P20); construct: Seed THP-1 cells (25,000 cells/well) containing 1.0 μg/ml LPS in 40 μl of RPMI medium; test: THP-1 Cells Pyroptosis Assay; conditions: THP-1 cells with 1.0 μg/ml LPS; compound 3 hours; nigericin 5 μM 1 hr; resazurin readout
Below, each entry is listed with its recorded IC50.
Mention the unit after the number when you answer.

Cc1cc(C(F)(F)F)cc(O)c1-c1ccc2oc(N3CCO[C@H]4CNC[C@@H]43)nc2n1 (racemic) [Example 64]; 4.9 nM
CCN1CCCC(Nc2nc3nc(-c4c(C)cc(C(F)(F)F)cc4O)cnc3o2)C1 (racemic) [Example 32]; 3 nM
Cc1cc(C(F)(F)F)cc(O)c1-c1ccc2oc(N3CC4COCC4C3)nc2n1 (stereo not shown) [Example 62]; 84.8 nM
Cc1cc(C#N)cc(O)c1-c1ccc2oc(NC3CCCN4CCCC34)nc2n1 (racemic) [Example 29]; 5.1 nM
Cc1cc(Cl)cc(O)c1-c1ccc2oc(N[C@@H]3CCCN(C)C3)nc2n1 [Example 44]; 0.7 nM
CCN1CCC[C@@H](Nc2nc3nc(-c4ccc(C(F)(F)F)cc4O)c(F)cc3[nH]2)C1 [Example 133]; 80.3 nM
CCN1C[C@@H](F)C[C@@H](Nc2nc3nc(-c4c(C)cc(Cl)cc4O)ccc3o2)C1 [Example 54]; 10.1 nM
COCCCN1CCC[C@@H](Nc2nc3nc(-c4c(C)cc(Cl)cc4O)ccc3o2)C1 [Example 96]; 56.1 nM

Query string: Need IC50 of Cc1cc(C(F)(F)F)cc(O)c1-c1ccc2oc(NC[C@H]3C[C@](C)(O)C3)nc2n1 [Example 58] , thanks.
Result string: 95.9 nM

Query string: What measured IC50 goes with Cc1cc(Cl)cc(O)c1-c1ccc2oc(NC3CCC4CCCN4C3)nc2n1 (stereo not shown) [Example 65] ?
Result string: 20.3 nM

Query string: Quick one: IC50 of Cc1cc(C(F)(F)F)cc(O)c1-c1ccc2oc(NC[C@H]3C[C@@](C)(O)C3)nc2n1 [Example 57] ?
Result string: 50.3 nM

Query string: Quick check: IC50 of Cc1cc(C#N)cc(O)c1-c1ccc2oc(N3CCC4CCN(C)CC43)nc2n1 (single isomer, unassigned) [Example 27B] ?
Result string: 2.7 nM

Query string: Consider the molecule Cc1cc(Cl)cc(O)c1-c1ccc2oc(CC3CCCN(C)C3)nc2n1 (stereo not shown) [Example 83] and give its measured IC50.
Result string: 5.1 nM
